Hey, just so you know, these numbers are from ChEMBL document CHEMBL4316653.

test-target: Retinoic acid receptor RXR-alpha (Homo sapiens, UniProt P19793)
Sequence (P19793 whole entry, the tested form may be a part): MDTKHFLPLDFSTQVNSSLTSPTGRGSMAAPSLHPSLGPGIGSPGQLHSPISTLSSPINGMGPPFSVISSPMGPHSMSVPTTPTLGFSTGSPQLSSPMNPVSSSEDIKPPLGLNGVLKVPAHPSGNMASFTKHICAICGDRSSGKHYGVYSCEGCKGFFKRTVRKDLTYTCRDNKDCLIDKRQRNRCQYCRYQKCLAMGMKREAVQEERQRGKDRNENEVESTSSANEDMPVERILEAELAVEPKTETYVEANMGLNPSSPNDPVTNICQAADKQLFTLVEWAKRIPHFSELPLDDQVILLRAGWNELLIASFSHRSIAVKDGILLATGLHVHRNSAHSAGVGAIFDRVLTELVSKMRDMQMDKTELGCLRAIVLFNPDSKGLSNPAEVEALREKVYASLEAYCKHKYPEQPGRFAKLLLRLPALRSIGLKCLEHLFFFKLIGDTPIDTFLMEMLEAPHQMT
experiment: Binding affinity to recombinant human RXRalpha LBD ([…] residues) expressed in Escherichia coli BL21 (DE3) by fluorescence quenching assay
pKd: −log10 of the molar value.
parameter-measured: pKd

(A) CC[C@H](C)c1cc(=O)c2c(O)cc(O)cc2o1
(B) CC(C)=CCOc1cc2c(=O)c3c(O)cc(O)cc3oc2cc1O
stdin: Parameter metric = pKd. Return the lower-valued option from A and B . Pick one and reply with its label.
stdout: A
(A: 4.17, B: 4.85)
